Every entry's value here was drawn from the supplement of paper PMC12494721.

- System: Escherichia coli IAI1
- PROTOCOL_TEXT: fold change of Putrescine concentration vs plate DMSO controls (fold change (ratio)); higher = more amine produced, active = hit call of the paper (significant change in both replicates, either direction)
- COND: incubation time: 27 h, anaerobic, 37 °C
Counter-ions that a name gives are not always drawn.

MOLECULE: Nc1nc2c(ncn2COCCO)c(=O)[nH]1 [Acyclovir] (20 µM)
fold change of Putrescine concentration: 1.03
//
MOLECULE: CCC(=O)O[C@]1(C(=O)CCl)[C@@H](C)C[C@H]2[C@@H]3CCC4=CC(=O)C=C[C@]4(C)[C@@]3(F)[C@@H](O)C[C@@]21C [Clobetasol propionate] (20 µM)
fold change of Putrescine concentration: 0.988
//
MOLECULE: CC1(C)S[C@@H]2[C@H](NC(=O)[C@H](N)c3ccc(O)cc3)C(=O)N2[C@H]1C(=O)O [Amoxicillin] (20 µM)
fold change of Putrescine concentration: 3.1
//
MOLECULE: Oc1cc(O)c2c(c1)O[C@H](c1ccc(O)c(O)c1)[C@@H](O)C2 [Cianidanol] (20 µM)
fold change of Putrescine concentration: 0.977
//
MOLECULE: Cc1ccc(/C(=C\CN2CCCC2)c2ccccn2)cc1 [Triprolidine hydrochloride] (20 µM)
fold change of Putrescine concentration: 1.09
//
MOLECULE: CCN(CC)CCc1nc(-c2ccccc2)no1 [Oxolamine citrate salt] (20 µM)
fold change of Putrescine concentration: 0.967
//
MOLECULE: COc1ncnc(NS(=O)(=O)c2ccc(N)cc2)c1OC [Sulfadoxine] (20 µM)
fold change of Putrescine concentration: 1.01
//
MOLECULE: O=C(NCC1CCCCN1)c1cc(OCC(F)(F)F)ccc1OCC(F)(F)F (stereo unspecified) [Flecainide acetate] (20 µM)
fold change of Putrescine concentration: 0.98
//
MOLECULE: CN(C)CCCN1c2ccccc2CCc2ccc(Cl)cc21 [Clomipramine hydrochloride] (20 µM)
fold change of Putrescine concentration: 0.997
//
MOLECULE: C=C1CC[C@H](O)C/C1=C/C=C1\CCC[C@]2(C)[C@@H]([C@H](C)CCCC(C)C)CC[C@@H]12 [Cholecalciferol] (20 µM)
fold change of Putrescine concentration: 0.96
//
MOLECULE: CCOC(=O)NNc1nncc2ccccc12 [Todralazine hydrochloride] (20 µM)
fold change of Putrescine concentration: 1.02
//
MOLECULE: Cc1cccc(C)c1NC(=O)C(C)N (stereo unspecified) [Tocainide hydrochloride] (20 µM)
fold change of Putrescine concentration: 1.03
//
MOLECULE: O=C1OCCN1/N=C/c1ccc([N+](=O)[O-])o1 [Furazolidone] (20 µM)
fold change of Putrescine concentration: 0.81
//
MOLECULE: CC[C@H]1OC(=O)[C@H](C)[C@@H](O[C@H]2C[C@@](C)(OC)[C@@H](O)[C@H](C)O2)[C@H](C)[C@@H](O[C@@H]2O[C@H](C)C[C@H](N(C)C)[C@H]2O)[C@](C)(O)C[C@@H](C)CN(C)[C@H](C)[C@@H](O)[C@]1(C)O [Azithromycin] (20 µM)
fold change of Putrescine concentration: 0.366
//
MOLECULE: N=C(N)NC(=O)Cc1c(Cl)cccc1Cl [Guanfacine hydrochloride] (20 µM)
fold change of Putrescine concentration: 1.02
//
MOLECULE: Nc1nc(/C(=C/CC(=O)O)C(=O)N[C@@H]2C(=O)N3C(C(=O)O)=CCS[C@H]23)cs1 [Ceftibuten] (20 µM)
fold change of Putrescine concentration: 0.79

* * *

- Tested on: Klebsiella aerogenes DSM 30053
- PROTOCOL_TEXT: fold change of Histamine concentration vs plate DMSO controls (fold change (ratio)); higher = more amine produced, active = hit call of the paper (significant change in both replicates, either direction)
- COND: incubation time: 27 h, anaerobic, 37 °C
Where a name gives a salt, the structure may show the parent alone.
Mark 0 (no) for fold change of Histamine concentration values under 1, and 1 (yes) for everything at or above.

MOLECULE: C[C@@H](O)[C@H]1C(=O)N2C(C(=O)O)=C(S[C@@H]3CN[C@H](C(=O)N(C)C)C3)[C@H](C)[C@H]12 [Meropenem] (20 µM)
CLASSIFICATION: 0 (no)
--
MOLECULE: COC(=O)C1=C(C)NC(C)=C(C(=O)OC2CCCN(Cc3ccccc3)C2)C1c1cccc([N+](=O)[O-])c1 (configuration not stated) [Benidipine hydrochloride] (20 µM)
CLASSIFICATION: 0 (no)
--
MOLECULE: Cc1cn([C@H]2C[C@H](N=[N+]=[N-])[C@@H](CO)O2)c(=O)[nH]c1=O [Zidovudine] (20 µM)
CLASSIFICATION: 1 (yes)
--
MOLECULE: CCOCC(O)COc1ccc(NC(=O)CC[S+](C)C)cc1 (configuration not stated) [Suplatast Tosylate] (20 µM)
CLASSIFICATION: 1 (yes)

* * *

- Test system: Klebsiella aerogenes DSM 30053
- PROTOCOL_TEXT: fold change of Histamine concentration vs plate DMSO controls (fold change (ratio)); higher = more amine produced, active = hit call of the paper (significant change in both replicates, either direction);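 for the amine columns active = adjusted P below 0.05 in both replicates with a change the same way and a mean fold change under 0.8 or over 1.25; inactive = the rest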
- COND: incubation time: 27 h, anaerobic, 37 °C
Where a name gives a salt, the structure may show the parent alone.
Labels: active, inactive

MOLECULE: N[C@H]1CONC1=O [(S,-) Cycloserine] (20 µM)
CLASSIFICATION: inactive
//
MOLECULE: CCOC(=O)[C@H](CCc1ccccc1)N[C@H]1CCc2ccccc2N(CC(=O)O)C1=O [Benazepril hydrochloride] (20 µM)
CLASSIFICATION: inactive
//
MOLECULE: CN1CCCN=C1/C=C/c1cccs1 [Pyrantel tartrate] (20 µM)
CLASSIFICATION: inactive
//
MOLECULE: CO[C@@H]1[C@@H](O[C@@H]2O[C@H](C)[C@@H](O[C@H]3C[C@@](C)(O)[C@@H](O)[C@H](C)O3)[C@H](N(C)C)[C@H]2O)[C@@H](CC=O)C[C@@H](C)[C@@H](O[C@H]2CC[C@H](N(C)C)[C@@H](C)O2)/C=C/C=C/C[C@@H](C)OC(=O)C[C@H]1OC(C)=O [Acetyl spiramycin] (20 µM)
CLASSIFICATION: active
//
MOLECULE: CN(C)CC/C=C1\c2ccccc2CSc2ccccc21 [Dosulepin hydrochloride] (20 µM)
CLASSIFICATION: inactive
//
MOLECULE: CC(=O)OCC(=O)[C@@]1(O)CC[C@H]2[C@@H]3CCC4=CC(=O)C=C[C@]4(C)[C@@]3(Cl)[C@@H](Cl)C[C@@]21C [Dichlorisone acetate] (20 µM)
CLASSIFICATION: inactive

* * *

Property: fold change of Tryptamine concentration; scope: individual molecules
- Tested on: Ruminococcus gnavus DSM 108212
- PROTOCOL_TEXT: fold change of Tryptamine concentration vs plate DMSO controls (fold change (ratio)); higher = more amine produced, active = hit call of the paper (significant change in both replicates, either direction)
- COND: incubation time: 27 h, anaerobic, 37 °C
Counter-ions that a name gives are not always drawn.

MOLECULE: CC(C)(C(=O)O)c1ccc(C(O)CCCN2CCC(C(O)(c3ccccc3)c3ccccc3)CC2)cc1 (centres undefined) [Fexofenadine hydrochloride] (20 µM)
SYSTEM_NAME: Ruminococcus gnavus DSM 108212
fold change of Tryptamine concentration: 0.978
//
MOLECULE: O=C(O)c1cc(=O)c2c(OCC(O)COc3cccc4oc(C(=O)O)cc(=O)c34)cccc2o1 [Cromolyn disodium salt] (20 µM)
SYSTEM_NAME: Ruminococcus gnavus DSM 108212
fold change of Tryptamine concentration: 1.04
//
MOLECULE: COc1ccc(C(=O)NCc2cccnc2)cc1C(=O)NCc1cccnc1 [Picotamide monohydrate] (20 µM)
SYSTEM_NAME: Ruminococcus gnavus DSM 108212
fold change of Tryptamine concentration: 0.926
//
MOLECULE: CCN1CCCC1CNC(=O)c1cc(S(=O)(=O)CC)c(N)cc1OC (centres undefined) [Amisulpride] (20 µM)
SYSTEM_NAME: Ruminococcus gnavus DSM 108212
fold change of Tryptamine concentration: 1.04

* * *

- Tested on: Escherichia coli IAI1
- PROTOCOL_TEXT: fold change of Putrescine concentration vs plate DMSO controls (fold change (ratio)); higher = more amine produced, active = hit call of the paper (significant change in both replicates, either direction)
- COND: incubation time: 27 h, anaerobic, 37 °C
Counter-ions that a name gives are not always drawn.

COMPOUND: CO/N=C1\CN(c2nc3c(cc2F)c(=O)c(C(=O)O)cn3C2CC2)CC1CN (configuration not stated) [Gemifloxacin mesylate] (20 µM)
fold change of Putrescine concentration: 0.735 (inactive)
--
COMPOUND: CCCCc1oc2ccccc2c1C(=O)c1cc(I)c(OCCN(CC)CC)c(I)c1 [Amiodarone hydrochloride] (20 µM)
fold change of Putrescine concentration: 0.96 (inactive)
--
COMPOUND: CCCCCCCN(CC)CCCC(O)c1ccc(NS(C)(=O)=O)cc1 (configuration not stated) [Ibutilide fumarate] (20 µM)
fold change of Putrescine concentration: 1.03 (inactive)
--
COMPOUND: COC(=O)C1=C(C)NC(C)=C(C(=O)OC)C1c1ccccc1[N+](=O)[O-] [Nifedipine] (20 µM)
fold change of Putrescine concentration: 1.05 (inactive)
--
COMPOUND: O=C(c1ccc(F)cc1)C1CCN(CCn2c(=O)[nH]c3ccccc3c2=O)CC1 [Ketanserin tartrate hydrate] (20 µM)
fold change of Putrescine concentration: 1.03 (inactive)
--
COMPOUND: CN(C(=O)C(Cl)Cl)c1ccc(OC(=O)c2ccco2)cc1 [Diloxanide furoate] (20 µM)
fold change of Putrescine concentration: 1.02 (inactive)
--
COMPOUND: COc1ccc(C2C(=O)c3ccccc3C2=O)cc1 [Anisindione] (20 µM)
fold change of Putrescine concentration: 0.953 (inactive)
--
COMPOUND: c1ccc2c(c1)-c1cccc3c1c-2cc1ccccc13 [Benzo[b]fluoranthene] (20 µM)
fold change of Putrescine concentration: 1 (inactive)
--
COMPOUND: CC(=O)OC(C)C[N+](C)(C)C (configuration not stated) [Methacholine chloride] (20 µM)
fold change of Putrescine concentration: 1.09 (inactive)
--
COMPOUND: COc1ccc(C(=O)c2ccc(C)cc2)c(O)c1 [Mexenone] (20 µM)
fold change of Putrescine concentration: 1.06 (inactive)
--
COMPOUND: C1CCC(C(CC2CCCCN2)C2CCCCC2)CC1 (configuration not stated) [Perhexiline maleate] (20 µM)
fold change of Putrescine concentration: 1.05 (inactive)
--
COMPOUND: CC1(C)[C@@H](OC(=O)CCC(=O)O)CC[C@]2(C)[C@H]3C(=O)C=C4[C@@H]5C[C@@](C)(C(=O)O)CC[C@]5(C)CC[C@@]4(C)[C@]3(C)CC[C@@H]12 [Carbenoxolone disodium salt] (20 µM)
fold change of Putrescine concentration: 1.04 (inactive)
--
COMPOUND: OC(CCN1CCCCC1)(c1ccccc1)C1CC2C=CC1C2 (configuration not stated) [Biperiden hydrochloride] (20 µM)
fold change of Putrescine concentration: 1.04 (inactive)
--
COMPOUND: NC(N)=Nc1nc(CSCC/C(N)=N/S(N)(=O)=O)cs1 [Famotidine] (20 µM)
fold change of Putrescine concentration: 1.03 (inactive)
--
COMPOUND: CCC1(c2ccccc2)C(=O)NCNC1=O [Primidone] (20 µM)
fold change of Putrescine concentration: 0.982 (inactive)
--
COMPOUND: CC(=O)Nc1ccc(CC(=O)O)cc1 [Actarit] (20 µM)
fold change of Putrescine concentration: 1.35 (inactive)
--
COMPOUND: CN1CCCC(n2nc(Cc3ccc(Cl)cc3)c3ccccc3c2=O)CC1 (configuration not stated) [Azelastine hydrochloride] (20 µM)
fold change of Putrescine concentration: 1.03 (inactive)
